Reference source: ChEMBL document CHEMBL5257027

Organism: Homo sapiens
Experiment: Inhibition of ABL […] mutant (unknown origin) at 10 uM using […] as substrate incubated for 40 mins in presence of [gamma33P]ATP by scintillation counting based hotspot kinase assay relative to control
Reported inhibition values follow for various compounds

mol | inhibition / %
COc1cccc(-c2nn(-c3ccccc3)cc2-c2ccnc(NCCCNC(=O)Nc3ccc(Cl)c(Cl)c3)c2)c1 | 6.38
COc1cccc(-c2nn(-c3ccccc3)cc2-c2ccnc(NCCNC(=O)Nc3cccc(C(F)(F)F)c3)c2)c1 | 2.92
O=C(NCCCNc1cc(-c2cn(-c3ccccc3)nc2-c2cccc(O)c2)ccn1)c1ccccc1 | 9.61
O=C(NCCCNc1cc(-c2cn(-c3ccccc3)nc2-c2cccc(O)c2)ccn1)c1ccc(F)cc1 | 14.6

====

Reported inhibition values follow for various molecules
Molecular target: UniProt P00519
Sequence (P00519 whole entry): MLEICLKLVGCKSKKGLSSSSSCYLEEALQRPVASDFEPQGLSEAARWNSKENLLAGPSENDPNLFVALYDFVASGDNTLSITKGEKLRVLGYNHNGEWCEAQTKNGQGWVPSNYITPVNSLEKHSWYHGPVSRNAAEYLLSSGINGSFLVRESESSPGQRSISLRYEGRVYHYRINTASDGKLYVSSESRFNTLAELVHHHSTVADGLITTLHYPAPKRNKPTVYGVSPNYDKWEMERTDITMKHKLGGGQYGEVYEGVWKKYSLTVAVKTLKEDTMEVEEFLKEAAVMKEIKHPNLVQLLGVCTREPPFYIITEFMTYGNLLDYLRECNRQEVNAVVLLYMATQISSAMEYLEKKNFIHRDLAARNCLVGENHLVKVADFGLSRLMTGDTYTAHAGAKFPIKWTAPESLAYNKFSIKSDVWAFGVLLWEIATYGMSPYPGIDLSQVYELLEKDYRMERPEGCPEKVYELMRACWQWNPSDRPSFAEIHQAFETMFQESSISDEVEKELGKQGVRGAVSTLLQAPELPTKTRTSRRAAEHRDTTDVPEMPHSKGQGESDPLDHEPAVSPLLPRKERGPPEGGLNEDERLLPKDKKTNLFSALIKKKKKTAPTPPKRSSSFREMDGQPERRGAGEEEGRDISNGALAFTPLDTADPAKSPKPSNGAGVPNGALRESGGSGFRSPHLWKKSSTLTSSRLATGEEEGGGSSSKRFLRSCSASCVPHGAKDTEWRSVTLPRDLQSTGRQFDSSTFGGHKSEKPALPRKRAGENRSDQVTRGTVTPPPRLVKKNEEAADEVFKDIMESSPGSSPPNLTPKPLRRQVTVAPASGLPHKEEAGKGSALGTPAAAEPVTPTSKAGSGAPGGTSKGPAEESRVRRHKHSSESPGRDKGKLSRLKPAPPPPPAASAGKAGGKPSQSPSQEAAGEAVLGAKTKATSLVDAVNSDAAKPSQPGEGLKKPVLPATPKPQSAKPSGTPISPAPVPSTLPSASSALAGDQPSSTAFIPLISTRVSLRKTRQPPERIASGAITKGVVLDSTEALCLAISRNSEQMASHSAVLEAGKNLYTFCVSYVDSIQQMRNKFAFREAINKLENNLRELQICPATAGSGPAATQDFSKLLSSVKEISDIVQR
Experiment: Inhibition of ABL (unknown origin) at 10 uM using […] as substrate incubated for 40 mins in presence of [gamma33P]ATP by scintillation counting based hotspot kinase assay relative to control

mol | study system | inhibition, %
COc1cccc(-c2nn(-c3ccccc3)cc2-c2ccnc(NCCNC(=O)Nc3cccc(C(F)(F)F)c3)c2)c1 | UniProt P00519 | 13.4
COc1cccc(-c2nn(-c3ccccc3)cc2-c2ccnc(NCCCNC(=O)Nc3ccc(Cl)c(Cl)c3)c2)c1 | UniProt P00519 | 7.7
O=C(NCCCNc1cc(-c2cn(-c3ccccc3)nc2-c2cccc(O)c2)ccn1)c1ccccc1 | UniProt P00519 | 16
O=C(NCCCNc1cc(-c2cn(-c3ccccc3)nc2-c2cccc(O)c2)ccn1)c1ccc(F)cc1 | UniProt P00519 | 16.1

====

System: NCI/ADR-RES
Assay: Antiproliferative activity against human NCI/ADR-RES cells assessed as reduction in cell growth
Format: functional

mol | GI50, nM
O=C(NCCCNc1cc(-c2cn(-c3ccccc3)nc2-c2cccc(O)c2)ccn1)c1ccc(F)cc1 | 2200
COc1cccc(-c2nn(-c3ccccc3)cc2-c2ccnc(NCCNC(=O)Nc3cccc(C(F)(F)F)c3)c2)c1 | 2220
O=C(NCCCNc1cc(-c2cn(-c3ccccc3)nc2-c2cccc(O)c2)ccn1)c1ccccc1 | 2670
COc1cccc(-c2nn(-c3ccccc3)cc2-c2ccnc(NCCCNC(=O)c3cccc(C(F)(F)F)c3)c2)c1 | 3540
COc1cccc(-c2nn(-c3ccccc3)cc2-c2ccnc(NCCCNC(=O)Nc3ccc(Cl)c(Cl)c3)c2)c1 | 2190

====

Reported GI50 values follow for various compounds
System: RXF 393
Assay: Antiproliferative activity against human RXF 393 cells assessed as reduction in cell growth
Type: functional
observable: GI50

mol | study system | observable | observed
CNC(=O)c1cc(Oc2ccc(NC(=O)Nc3ccc(Cl)c(C(F)(F)F)c3)cc2)ccn1 | RXF 393 | GI50 | 2510 nM
O=C(NCCCNc1cc(-c2cn(-c3ccccc3)nc2-c2cccc(O)c2)ccn1)c1ccccc1 | RXF 393 | GI50 | 1970 nM
COc1cccc(-c2nn(-c3ccccc3)cc2-c2ccnc(NCCCNC(=O)c3cccc(C(F)(F)F)c3)c2)c1 | RXF 393 | GI50 | 2200 nM
O=C(NCCCNc1cc(-c2cn(-c3ccccc3)nc2-c2cccc(O)c2)ccn1)c1ccc(F)cc1 | RXF 393 | GI50 | 1630 nM
COc1cccc(-c2nn(-c3ccccc3)cc2-c2ccnc(NCCCNC(=O)Nc3ccc(Cl)c(Cl)c3)c2)c1 | RXF 393 | GI50 | 1800 nM
COc1cccc(-c2nn(-c3ccccc3)cc2-c2ccnc(NCCNC(=O)Nc3cccc(C(F)(F)F)c3)c2)c1 | RXF 393 | GI50 | 1530 nM
